Molecular target: N-myristoyltransferase 1 (NMT1) (Homo sapiens, UniProt P30419)
Sequence (P30419 whole entry): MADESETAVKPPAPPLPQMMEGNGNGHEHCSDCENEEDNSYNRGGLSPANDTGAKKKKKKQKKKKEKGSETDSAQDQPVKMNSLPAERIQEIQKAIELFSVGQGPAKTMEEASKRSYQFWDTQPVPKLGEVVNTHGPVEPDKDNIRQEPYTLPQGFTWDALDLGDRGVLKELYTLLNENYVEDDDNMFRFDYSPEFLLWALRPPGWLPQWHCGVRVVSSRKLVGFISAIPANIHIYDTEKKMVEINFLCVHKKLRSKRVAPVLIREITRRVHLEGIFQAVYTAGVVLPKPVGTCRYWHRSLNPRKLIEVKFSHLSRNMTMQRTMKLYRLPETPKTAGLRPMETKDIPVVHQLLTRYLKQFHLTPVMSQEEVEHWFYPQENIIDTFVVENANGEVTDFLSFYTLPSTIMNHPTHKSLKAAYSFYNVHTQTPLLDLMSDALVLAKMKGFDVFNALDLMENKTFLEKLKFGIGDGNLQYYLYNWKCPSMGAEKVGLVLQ
Assay: steady-state inhibition kinetics of acetylation of ARF6 peptide (HPLC), recombinant NMT1
Type: biochemical
parameterMeasured: pKi
The read-out pKi is expressed as -log10 of concentration in moles per litre.

Exercise: Please look at this compound and report its pKi: CC(=O)CSCCNC(=O)CCNC(=O)[C@H](O)C(C)(C)COP(=O)(O)OP(=O)(O)OC[C@H]1O[C@@H](n2cnc3c(N)ncnc32)[C@H](O)[C@@H]1OP(=O)(O)O [S-acetonyl-CoA]
Solution: 5.00

----------
Biological target: N-myristoyltransferase 1 (NMT1) (Homo sapiens)
Test: steady-state kinetics with ARF6 peptide (HPLC, MS); Kia from ordered Bi-Bi global fit
Assay type: biochemical
Details: read-out: Kia
parameterMeasured: Kd (nM)
Give the value, in units of nM, as a plain number.

Exercise: Please look at this molecule and report its Kd: CC(=O)SCCNC(=O)CCNC(=O)[C@H](O)C(C)(C)COP(=O)(O)OP(=O)(O)OC[C@H]1O[C@@H](n2cnc3c(N)ncnc32)[C@H](O)[C@@H]1OP(=O)(O)O
Solution: 2400
